# Test system: Plasmodium berghei ANKA liver stage in HepG2-A16-CD81
# method-notes: % inhibition of liver stage parasite viability (luciferase); higher = more inhibition
# applied-conditions: 5 µM; 48 h
measured-parameter: % inhibition of liver stage parasite viability (%)

1) C[C@@H](O)[C@H](N)C(=O)NS(=O)(=O)c1cccc(-c2ccc3[nH]ncc3c2)c1 = 31.2
2) CCN(CC)CCn1c(=N)n(CC(O)COc2ccc(Cl)cc2Cl)c2ccccc21 (stereo not given) = 42.1
3) CCN(CC)S(=O)(=O)c1ccc(Cl)c(C(=O)Nc2sc3c(c2C#N)CCCC3)c1 = 69.2
4) O=c1cc(OCc2ccccc2)ccn1Cc1ccccc1 = 20.3
5) O=c1cc(Nc2ccc3ccccc3c2)[nH]c(=O)[nH]1 = 39.9

----------
# Tested on: Plasmodium falciparum NF54 stage IV/V gametocytes
# method-notes: % inhibition of gametocyte viability (PrestoBlue); higher = more inhibition
# applied-conditions: 5 µM; 48 h
measured-parameter: % inhibition of gametocyte viability

1. COc1cc2c(O)c3c(c(-c4ccc5c(c4)OCO5)c2cc1OC)C(=O)OC3 = 17.7%
2. CN(Cc1ccc(C(C)(C)C)cc1)Cc1cccc2ccccc12 = 8.91%
3. CC(C)Nc1ncnc2c1cnn2-c1ccc(Cl)cc1 = 15.6%
4. Cc1ncc([N+](=O)[O-])n1CC(O)CN1CCOCC1 (configuration not stated) = < 0%
5. CN(C)CCCNC(=O)c1ccc(-c2cc(O)c3ncccc3c2)cc1 = 81.4%
6. CCNC(=O)Nc1cc2c(-c3ccnc(C)c3)ccc(CNC(=O)OC)c2cn1 = 27.4%
7. O=C1c2cccc3cccc(c23)C(=O)N1CC1CO1 (configuration not stated) = 8.86%
8. O=S(=O)(NCB(O)O)c1ccc(-c2nnn[nH]2)cc1C(F)(F)F = 9.79%
9. CC(=O)N1c2ccccc2NC2=C(C(=O)CC(C)(C)C2)C1c1ccc(OCc2ccccc2)cc1 (configuration not stated) = 24.2%
10. COc1cc(NS(=O)(=O)c2ccc(C)cc2)c2ncccc2c1 = 0.605%
11. O=C(O)c1cc(-c2ccc(Br)cc2)nc2ccc(Cl)cc12 = 5.76%
12. Nc1nnc(-c2ccc(Cl)cc2)s1 = < 0%
13. CN1CCN(c2ccc3[nH]c(-c4ccc5[nH]c(-c6ccc(O)cc6)nc5c4)nc3c2)CC1 = < 0%
14. CN(C(=O)C1(c2ccc(Cl)cc2)CCC1)c1ccccc1 = 17.3%
15. CCOc1ccc(/C=N/NC(=O)C2CC2c2ccc(C(C)(C)C)cc2)cc1OCC (configuration not stated) = 1.6%
16. OB1OCc2c1ccc(Cl)c2F = < 0%
17. Oc1c(C(Nc2nc3ccccc3s2)c2ccc(OC(F)F)cc2)ccc2cccnc12 (configuration not stated) = 60.6%
18. Nc1nc(-c2ccccc2)nc2[nH]nc(Nc3ccc(C(F)(F)F)cc3)c12 = 7.65%
19. CSC[C@H]1CN(Cc2c[nH]c3c(N)ncnc23)C[C@@H]1O = < 0%
20. CC(=O)Nc1cc(NS(=O)(=O)c2ccc(Cl)cc2)cc2c(Cl)n[nH]c12 = 50%
21. CC[C@@H](CO)NCCN[C@@H](CC)CO = 25%
22. CC(=N)N1CC[C@H](SC2=C(C(=O)O)N3C(=O)[C@@H]([C@@H](C)O)[C@H]3C2)C1 = < 0%
